# Assay Notes: inhibition of endothelial tube formation, primary screen, imaging, VEGF stimulated, CD31 staining, tube area, NPC library (AID 1117340)
# Measurement Setup: VEGF-stimulated ADSC/ECFC co-culture, at 10 µM
Active and inactive are the calls of the source.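 How the source made its calls: active means compound that reduces growth-factor-driven endothelial tube area in a mixed cell culture, no cutoff stated; inactive means the rest.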
Write down the outcome that applies. Available outcomes: YES for active, NO for inactive

Answered examples (5):
>>> class("COc1ccc(C(=O)N2CCCC2=O)cc1")
"NO"
>>> class("COc1ccc(OC)c(C(O)C(C)N)c1 (stereo unspecified)")
"NO"
>>> class("CC(C)C(Br)C(=O)NC(N)=O (stereo unspecified)")
"NO"
>>> class("CN(C)CCc1ccc(O)cc1")
"NO"
>>> class("CC(C)=C[C@@H]1[C@@H](C(=O)OCc2coc(Cc3ccccc3)c2)C1(C)C")
"NO"

Check the results log: what was the call for Nc1ccccc1C(=O)OCC(O)CO (stereo unspecified) ? NO

Now the compound C[C@@H]1CN(C2CCC(C#N)(c3ccc(F)cc3)CC2)CC[C@]1(C(=O)O)c1ccccc1 (stereo partly specified) NO

Now the compound `NCC1(CC(=O)O)CCCCC1` NO

====

# Assay Notes: antimalarial activity against Dd2 strain (AID 2302);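 further: 0% = DMSO untreated growth and 100% = chloroquine plus artemisinin killed control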
# Measurement Setup: P. falciparum Dd2 in RBCs, LDH growth readout, 72 h; at 2 µM
Calls of active or inactive are those of the source.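 Rule for the calls: active = growth inhibition above 50% at the single 2 µM test dose, taken to imply half-maximal potency below 2 µM; inactive = the rest.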
Write down the outcome that applies. Available outcomes: active, inactive

>>> class("Cc1ccc(CC(C)NCC(O)c2cccc(C(F)(F)F)c2)cc1F (centres undefined)")
"active"

Check the results log: what was the call for OC(CNC1CCCCC1)c1ccc(Cl)c(Cl)c1 (centres undefined) ? active

Now the compound C=CCOc1ccccc1CNCC(O)c1cccc(C(F)(F)F)c1 (centres undefined) active

Now the compound O=C(/C=C/c1ccc(Cl)c(Cl)c1)NC1[C@@H]2CC[C@H]1CC(CN1CCC(c3c[nH]c4ccccc34)CC1)C2 (some centres undefined) active

Now the compound `O=C(/C=C/c1ccc(Cl)c(Cl)c1)N1CCC(CN2CCC(c3c(-c4ccc(F)cc4)[nH]c4ccccc34)CC2)CC1` active

Now the compound O=C(NC1CCC(CN2CCC(c3c[nH]c4ccccc34)CC2)CC1)c1cc2cccc([N+](=O)[O-])c2[nH]1 (centres undefined) active

Now the compound CC1(CCCCN2CC=C(c3c[nH]c4ccccc34)CC2)C(=O)Nc2ccccc21 (centres undefined) active

Now the compound `Cc1ccc(C)c(N2CCN(Cc3ccccc3O)CC2)c1` active

Now the compound `CC[C@H]1CN2CC[C@@H]1C[C@H]2[C@H](O)c1cc(-c2cccnc2)nc2ccc(OC)cc12` active

Now the compound `Oc1ccc2[nH]cc(C3=CCN(CCc4ccccc4)CC3)c2c1` active

Now the compound CC(Cc1ccc(NC(=O)CCCc2ccccc2)cc1)NCCc1cccc(Cl)c1 (centres undefined) inactive

Now the compound CS(=O)(=O)Nc1ccc2[nH]cc(C3C[C@H]4CC[C@@H](C3)N4CC3CCC(NC(=O)/C=C/c4ccc(Cl)c(Cl)c4)CC3)c2c1 (some centres undefined) active

Now the compound CC(Cc1ccc(NC(=O)[C@H](C)NCCc2cccc(Cl)c2)cc1)NCCc1cccc(Cl)c1 (some centres undefined) active

====

# Target Or Test System: 6-phosphogluconate dehydrogenase, decarboxylating (Homo sapiens) (UniProt P52209)
# Sequence (P52209 whole entry, looked up): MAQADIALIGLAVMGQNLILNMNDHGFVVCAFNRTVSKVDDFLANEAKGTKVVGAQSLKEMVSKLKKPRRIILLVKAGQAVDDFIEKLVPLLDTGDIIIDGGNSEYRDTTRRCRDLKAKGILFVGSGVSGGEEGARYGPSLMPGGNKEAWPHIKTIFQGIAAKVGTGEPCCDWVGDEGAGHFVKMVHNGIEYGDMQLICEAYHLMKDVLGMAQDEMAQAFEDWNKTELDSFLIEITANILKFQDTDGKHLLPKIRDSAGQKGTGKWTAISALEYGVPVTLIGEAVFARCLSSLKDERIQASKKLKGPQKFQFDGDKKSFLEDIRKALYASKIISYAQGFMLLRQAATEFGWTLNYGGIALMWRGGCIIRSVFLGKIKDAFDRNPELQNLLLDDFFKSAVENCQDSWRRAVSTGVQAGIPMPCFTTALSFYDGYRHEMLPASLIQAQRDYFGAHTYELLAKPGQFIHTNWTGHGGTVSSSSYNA
# Assay Notes: 6PGD enzyme inhibitors, primary screen, biochemical, human, recombinant enzyme, NADPH absorbance (AID 1159550)
# Measurement Setup: recombinant 6PGD, NADPH absorbance 341 nm; at 10 µM; hits give high values
Observation Type: inhibition (%)
Numeric only. Scale: %

Worked examples follow.
>>> recorded_value("CC[N+]1(C)CCCC(OC(=O)C(O)(c2ccccc2)c2ccccc2)C1 (stereo not drawn)")
-2.23
>>> recorded_value("COc1cc([C@@H]2c3cc4c(cc3[C@@H](O)C3COC(=O)C32)OCO4)cc(OC)c1O (stereo partly drawn)")
4.81
>>> recorded_value("CNC(=O)Oc1ccccc1OC(C)C")
-1.91
>>> recorded_value("CC[C@H](C)C(=O)O[C@@H]1C[C@@]2(C)[C@H](c3ccoc3)OC(=O)C[C@]23OC2(C)O[C@@]34[C@H](OC(=O)C(C)C)C3(O)[C@@H](OC(=O)[C@@]5(C)O[C@@H]5C)C5(C)C[C@]3(O)[C@](C)([C@H]5CC(=O)OC)[C@@]14O2 (stereo partly drawn)")
3.98
>>> recorded_value("COc1cccc2c1cc([N+](=O)[O-])c1c(C(=O)O)cc3c(c12)OCO3")
-5.9

Turning now to a further compound:
Give its inhibition value. Item: C#CCOS(=O)OC1CCCCC1Oc1ccc(C(C)(C)C)cc1 (stereo not drawn) -21.1
